Recorded values, source PubChem BioAssay AID493005.

system: Tumor susceptibility gene 101 protein (Homo sapiens) (UniProt Q99816)
Sequence (Q99816 whole entry, looked up): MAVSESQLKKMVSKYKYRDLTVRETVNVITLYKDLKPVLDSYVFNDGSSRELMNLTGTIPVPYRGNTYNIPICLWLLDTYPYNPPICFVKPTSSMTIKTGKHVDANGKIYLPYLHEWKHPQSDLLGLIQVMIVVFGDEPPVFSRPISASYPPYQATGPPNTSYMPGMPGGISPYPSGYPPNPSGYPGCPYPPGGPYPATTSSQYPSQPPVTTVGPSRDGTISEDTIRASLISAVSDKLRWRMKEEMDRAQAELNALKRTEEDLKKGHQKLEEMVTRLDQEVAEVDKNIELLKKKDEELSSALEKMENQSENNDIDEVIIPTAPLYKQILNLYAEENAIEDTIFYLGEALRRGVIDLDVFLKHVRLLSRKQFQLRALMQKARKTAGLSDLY
assay-text: qHTS Assay for Iinhibitors of HIV-1 Budding by Blocking the Interaction of PTAP/TSG101
experimental-setup: Fluorescence polarization, FITC-PTAP peptide / Tsg101 binding; series mostly up to 115 µM
Excerpt: NIH Molecular Libraries Probe Production Network [MLPCN] NIH Chemical Genomics Center [NCGC] […] A fluorescence anisotropy assay has been developed to quantitatively measure the PTAP-Tsg101 interaction which can be used to screen for inhibitors of this interaction. […]
Screen size: about 340,000 compounds; fewer than 10 were called active. The list is a sample of the results.
measured-attribute: outcome

Study these solved cases before continuing.
>>> reported_result("CCc1c(O)nc(SCC(=O)Nc2ccccc2)n(C(C)CC)c1=O (stereo not given)")
"inactive"
>>> reported_result("CC(=O)N(CN1C(=O)C2CC=CCC2C1=O)c1cccc(Cl)c1 (stereo not given)")
"inactive"
>>> reported_result("Cc1ncc([N+](=O)[O-])n1CCOC(=O)c1ccc(Br)cc1")
"inactive"
>>> reported_result("O=[N+]([O-])c1cccc(S(=O)(=O)N2CCCCCC2)c1")
"inactive"
>>> reported_result("CCC(=O)N1c2ccc(S(=O)(=O)NCc3ccco3)cc2CC1C (stereo not given)")
"inactive"

Recorded outcome (compound O=C(NCc1nnc(SCC(=O)N2CCC(Cc3ccccc3)CC2)o1)c1ccco1 ): inactive

Recorded outcome (compound CCc1cccc(C)c1NC(=S)N(CCCN1CCN(C)CC1)Cc1cccs1 ): inactive

Recorded outcome (compound CCOc1ccc(NC(=O)[C@H](C)NC(=O)C2CC(=O)N(c3ccc(OC)cc3)C2)cc1 (stereo not given in full) ): inactive

Recorded outcome (compound O=C(Nc1ccc(-n2cccn2)cc1)C1CCN(Cc2ccsc2)CC1 ): inactive

Recorded outcome (compound COc1cc(C2NC(=O)NC(c3ccccc3)=C2C(C)=O)c(Br)cc1OCC(N)=O (stereo not given) ): inactive
